Ref: ChEMBL document CHEMBL2169821

Assay: Chemical stability of the compound in phosphate buffer up to 48 hrs at pH 6.5 by HPLC analysis
Format: physicochemical
Conditions: pH 6.5, 48 h

- CHEMICAL_STRING: "CC[C@H]1CN2CCc3cc(OC)c(OC)cc3[C@@H]2C[C@@H]1C[C@@H]1c2cc(OC)c(OC)cc2CCN1C(=O)OCc1ccccc1"
  Stability: "Stable"
- CHEMICAL_STRING: "CC[C@H]1CN2CCc3cc(OC)c(OC)cc3[C@@H]2C[C@@H]1C[C@@H]1c2cc(OC)c(OC)cc2CCN1C(=S)NCc1ccc(Cl)cc1"
  Stability: "Stable"
- CHEMICAL_STRING: "CC[C@H]1CN2CCc3cc(OC)c(OC)cc3[C@@H]2C[C@@H]1C[C@@H]1c2cc(OC)c(OC)cc2CCN1C(=O)NCc1ccc(OC)cc1"
  Stability: "Stable"

###

Assay: Prodrug activation in phosphate buffer assessed as emetine formation up to 48 hrs at pH 5.5 by HPLC analysis
Conditions: pH 5.5, 48 h
OBSERVABLE: Drug metabolism

- CHEMICAL_STRING: "CC[C@H]1CN2CCc3cc(OC)c(OC)cc3[C@@H]2C[C@@H]1C[C@@H]1c2cc(OC)c(OC)cc2CCN1C(=O)/C=C(/C)C(=O)O"
  RESULT: "Active"
- CHEMICAL_STRING: "CC[C@H]1CN2CCc3cc(OC)c(OC)cc3[C@@H]2C[C@@H]1C[C@@H]1c2cc(OC)c(OC)cc2CCN1C(=O)/C=C(/C)C(=O)[O-].[Na+]"
  RESULT: "Active"
- CHEMICAL_STRING: "CC[C@H]1CN2CCc3cc(OC)c(OC)cc3[C@@H]2C[C@@H]1C[C@@H]1c2cc(OC)c(OC)cc2CCN1C(=O)/C=C(/CC(=O)[O-])C(=O)[O-].[Na+].[Na+]"
  RESULT: "Active"
- CHEMICAL_STRING: "CC[C@H]1CN2CCc3cc(OC)c(OC)cc3[C@@H]2C[C@@H]1C[C@@H]1c2cc(OC)c(OC)cc2CCN1C(=O)/C=C\\C(=O)[O-].[Na+]"
  RESULT: "Active"

Turning now to a further molecule:
Please give the documented Drug metabolism of CC[C@H]1CN2CCc3cc(OC)c(OC)cc3[C@@H]2C[C@@H]1C[C@@H]1c2cc(OC)c(OC)cc2CCN1C(=O)/C=C\C(=O)O Active

###

Test system: LNCaP
Assay: Cytotoxicity against human LNCAP cells measured on day 3 by MTT assay
Format: functional, cell-based
Settings: 72 h
OBSERVABLE: IC50 (nM)
Numbers only, in nM.

Please give the documented IC50 of CC[C@H]1CN2CCc3cc(OC)c(OC)cc3[C@@H]2C[C@@H]1C[C@H]1NCCc2cc(OC)c(OC)cc21.Cl.Cl [EMETINE HYDROCHLORIDE] 37.9

###

Test system: DU-145
Experiment: Cytotoxicity against human DU145 cells measured on day 3 by MTT assay
Type: functional, cell-based
Settings: DU-145, 72 h
OBSERVABLE: IC50

Please give the documented IC50 of CC[C@H]1CN2CCc3cc(OC)c(OC)cc3[C@@H]2C[C@@H]1C[C@H]1NCCc2cc(OC)c(OC)cc21.Cl.Cl [EMETINE HYDROCHLORIDE] 0.0329 µM

###

Kindly supply the reported pIC50 values for the records listed here.
System: LNCaP
Experiment: Cytotoxicity against human LNCAP cells measured on day 7 by MTT assay
Type: functional, cell-based
Conditions: Homo sapiens, LNCaP, 168 h
One number for each entry, as −log10 of the molar value.

- CHEMICAL_STRING: "CC[C@H]1CN2CCc3cc(OC)c(OC)cc3[C@@H]2C[C@@H]1C[C@@H]1c2cc(OC)c(OC)cc2CCN1C(=S)NCc1ccccc1"
  pIC50: 5.69

Go through the list and state pIC50 for each entry.
1. CC[C@H]1CN2CCc3cc(OC)c(OC)cc3[C@@H]2C[C@@H]1C[C@@H]1c2cc(OC)c(OC)cc2CCN1C(=O)OCc1ccccc1
2. CC[C@H]1CN2CCc3cc(OC)c(OC)cc3[C@@H]2C[C@@H]1C[C@@H]1c2cc(OC)c(OC)cc2CCN1C(=O)CCC(=O)O
3. CC[C@H]1CN2CCc3cc(OC)c(OC)cc3[C@@H]2C[C@@H]1C[C@@H]1c2cc(OC)c(OC)cc2CCN1S(=O)(=O)c1ccccc1
4. CC[C@H]1CN2CCc3cc(OC)c(OC)cc3[C@@H]2C[C@@H]1C[C@@H]1c2cc(OC)c(OC)cc2CCN1C(=O)NCc1ccc(OC)cc1
5. CC[C@H]1CN2CCc3cc(OC)c(OC)cc3[C@@H]2C[C@@H]1C[C@@H]1c2cc(OC)c(OC)cc2CCN1C(=O)/C=C\C(=O)[O-].[Na+]
6. CC[C@H]1CN2CCc3cc(OC)c(OC)cc3[C@@H]2C[C@@H]1C[C@@H]1c2cc(OC)c(OC)cc2CCN1C(=O)NCc1ccc(Cl)cc1

1: 5.49; 2: 5.61; 3: 5.65; 4: 5.11; 5: 5.05; 6: 5.27

Go through the list and state pIC50 for each entry.
1. CC[C@H]1CN2CCc3cc(OC)c(OC)cc3[C@@H]2C[C@@H]1C[C@@H]1c2cc(OC)c(OC)cc2CCN1S(=O)(=O)c1ccc(Cl)cc1
2. CC[C@H]1CN2CCc3cc(OC)c(OC)cc3[C@@H]2C[C@@H]1C[C@@H]1c2cc(OC)c(OC)cc2CCN1C(=S)NCc1ccc(Cl)cc1
3. CC[C@H]1CN2CCc3cc(OC)c(OC)cc3[C@@H]2C[C@@H]1C[C@@H]1c2cc(OC)c(OC)cc2CCN1C(=S)NCc1ccc(OC)cc1

1. 5.57
2. 5.80
3. 5.47

###

Test: Chemical stability of the compound in phosphate buffer up to 48 hrs at pH 6.5 by HPLC analysis
Format: physicochemical
Conditions: pH 6.5, 48 h
OBSERVABLE: Stability

- CHEMICAL_STRING: "CC[C@H]1CN2CCc3cc(OC)c(OC)cc3[C@@H]2C[C@@H]1C[C@@H]1c2cc(OC)c(OC)cc2CCN1C(=O)NCc1ccc(Cl)cc1"
  RESULT: "Stable"
- CHEMICAL_STRING: "CC[C@H]1CN2CCc3cc(OC)c(OC)cc3[C@@H]2C[C@@H]1C[C@@H]1c2cc(OC)c(OC)cc2CCN1C(=S)NCc1ccc(OC)cc1"
  RESULT: "Stable"
- CHEMICAL_STRING: "CC[C@H]1CN2CCc3cc(OC)c(OC)cc3[C@@H]2C[C@@H]1C[C@@H]1c2cc(OC)c(OC)cc2CCN1C(=S)NCc1ccccc1"
  RESULT: "Stable"

###

System: PC-3
Assay: Cytotoxicity against human PC3 cells measured on day 5 by MTT assay
Type: functional, cell-based
Settings: PC-3, 120 h
OBSERVABLE: pIC50
Give bare numbers, as −log10 of the molar value.

Please give the documented pIC50 of CC[C@H]1CN2CCc3cc(OC)c(OC)cc3[C@@H]2C[C@@H]1C[C@H]1NCCc2cc(OC)c(OC)cc21.Cl.Cl [EMETINE HYDROCHLORIDE] 7.57

###

Kindly supply the reported pIC50 values for the records listed here.
System: LNCaP
Assay: Cytotoxicity against human LNCAP cells measured on day 7 by MTT assay
Assay type: functional, cell-based
Settings: Homo sapiens, LNCaP, 168 h
Answers are plain numbers, as −log10 of the molar value.

Study these solved cases before continuing.
- COMPOUND: "CC[C@H]1CN2CCc3cc(OC)c(OC)cc3[C@@H]2C[C@@H]1C[C@@H]1c2cc(OC)c(OC)cc2CCN1C(=O)/C=C(/CC(=O)[O-])C(=O)[O-].[Na+].[Na+]"
  pIC50: 5.26
- COMPOUND: "CC[C@H]1CN2CCc3cc(OC)c(OC)cc3[C@@H]2C[C@@H]1C[C@H]1NCCc2cc(OC)c(OC)cc21.Cl.Cl [EMETINE HYDROCHLORIDE]"
  pIC50: 7.50
- COMPOUND: "CC[C@H]1CN2CCc3cc(OC)c(OC)cc3[C@@H]2C[C@@H]1C[C@@H]1c2cc(OC)c(OC)cc2CCN1C(=O)/C=C(/C)C(=O)[O-].[Na+]"
  pIC50: 6.34

Give the observed pIC50 of CC[C@H]1CN2CCc3cc(OC)c(OC)cc3[C@@H]2C[C@@H]1C[C@@H]1c2cc(OC)c(OC)cc2CCN1S(=O)(=O)c1ccc(OC)cc1 for LNCaP. 5.50

###

Kindly supply the reported IC50 values for the records listed here.
Tested on: LNCaP
Test: Cytotoxicity against human LNCAP cells measured on day 7 by MTT assay
Type: functional, cell-based
Settings: Homo sapiens, LNCaP, 168 h

- CHEMICAL_STRING: "CC[C@H]1CN2CCc3cc(OC)c(OC)cc3[C@@H]2C[C@@H]1C[C@@H]1c2cc(OC)c(OC)cc2CCN1C(=S)SCc1ccccc1"
  RESULT: "1970 nM"
- CHEMICAL_STRING: "CC[C@H]1CN2CCc3cc(OC)c(OC)cc3[C@@H]2C[C@@H]1C[C@@H]1c2cc(OC)c(OC)cc2CCN1C(=S)[S-].[Na+]"
  RESULT: "79 nM"

Turning now to a further molecule:
Please give the documented IC50 of CC[C@H]1CN2CCc3cc(OC)c(OC)cc3[C@@H]2C[C@@H]1C[C@@H]1c2cc(OC)c(OC)cc2CCN1C(=O)NCc1ccccc1 2120 nM
